Attribution: ChEMBL document CHEMBL5291721

Reported AC50 is given for each of the following molecules.
target: UniProt P41595; format: functional, cell-based
Sequence (P41595 whole entry): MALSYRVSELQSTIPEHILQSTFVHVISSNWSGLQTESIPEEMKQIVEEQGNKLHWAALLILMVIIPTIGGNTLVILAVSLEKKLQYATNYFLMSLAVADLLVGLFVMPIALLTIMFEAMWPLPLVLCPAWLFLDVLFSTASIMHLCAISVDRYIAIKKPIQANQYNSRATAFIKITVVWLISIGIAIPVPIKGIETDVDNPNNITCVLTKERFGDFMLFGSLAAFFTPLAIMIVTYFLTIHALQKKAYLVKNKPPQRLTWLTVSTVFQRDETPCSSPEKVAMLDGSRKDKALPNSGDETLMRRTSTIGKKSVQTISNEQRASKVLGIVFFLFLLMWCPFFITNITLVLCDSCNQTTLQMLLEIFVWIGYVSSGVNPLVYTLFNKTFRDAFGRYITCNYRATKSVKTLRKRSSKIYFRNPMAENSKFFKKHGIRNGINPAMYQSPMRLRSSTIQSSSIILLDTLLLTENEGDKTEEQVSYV

Below are worked cases with known answers.
molecule="C=CCN1CCc2nc(N)sc2CC1 [TALIPEXOLE]" test_value="> 30 µM"
molecule="CCOC(=O)c1ccc(N)cc1 [BENZOCAINE]" test_value="> 10 µM"

Report AC50 for Cc1cc(=O)n(-c2ccccc2)n1C [ANTIPYRINE]
> 10 µM

Dear colleague, please send me the reported AC50 for Cc1onc(-c2c(F)cccc2Cl)c1C(=O)N[C@@H]1C(=O)N2[C@@H]1SC(C)(C)[C@@H]2C(=O)O [FLOXACILLIN] when you can.
> 30 µM

----------
# AC50 measurements, system: Neuronal acetylcholine receptor subunit alpha-4 (Homo sapiens, UniProt P43681); further: assay procedure not described here
# Sequence (P43681 whole entry): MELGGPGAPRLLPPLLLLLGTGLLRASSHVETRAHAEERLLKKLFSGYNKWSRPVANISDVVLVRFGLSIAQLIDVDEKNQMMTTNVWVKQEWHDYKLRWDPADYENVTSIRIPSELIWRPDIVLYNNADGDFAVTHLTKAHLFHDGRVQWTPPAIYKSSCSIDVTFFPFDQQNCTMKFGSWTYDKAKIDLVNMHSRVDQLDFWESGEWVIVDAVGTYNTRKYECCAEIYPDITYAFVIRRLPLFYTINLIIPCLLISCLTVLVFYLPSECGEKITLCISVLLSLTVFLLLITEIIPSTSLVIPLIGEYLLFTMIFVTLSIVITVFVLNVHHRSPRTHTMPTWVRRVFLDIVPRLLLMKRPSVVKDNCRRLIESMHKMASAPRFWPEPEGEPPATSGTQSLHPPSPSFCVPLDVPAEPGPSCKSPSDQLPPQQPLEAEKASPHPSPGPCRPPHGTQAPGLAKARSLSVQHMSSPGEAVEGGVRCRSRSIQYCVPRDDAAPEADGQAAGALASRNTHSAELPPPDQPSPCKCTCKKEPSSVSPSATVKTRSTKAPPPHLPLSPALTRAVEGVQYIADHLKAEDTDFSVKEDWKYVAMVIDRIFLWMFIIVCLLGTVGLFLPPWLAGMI

GET AC50 where system = Neuronal acetylcholine receptor subunit alpha-4 (Homo sapiens, UniProt P43681) and item = CCCc1nc2c(C)cc(-c3nc4ccccc4n3C)cc2n1Cc1ccc(-c2ccccc2C(=O)O)cc1; further: assay procedure not described here
> 30 µM

Please look at COc1ccc(C2C(=O)c3ccccc3C2=O)cc1 [ANISINDIONE] and tell me its recorded AC50 on Neuronal acetylcholine receptor subunit alpha-4 (Homo sapiens, UniProt P43681).
> 10 µM

Give AC50 only, for CCOc1cc([C@@H](CS(C)(=O)=O)N2C(=O)c3cccc(NC(C)=O)c3C2=O)ccc1OC , using Neuronal acetylcholine receptor subunit alpha-4 (Homo sapiens, UniProt P43681) data.
> 30 µM

----------
Parameter AC50: see the listing below.
target: 3',5'-cyclic-AMP phosphodiesterase 4D (Homo sapiens, UniProt Q08499); type: functional; further: assay procedure not described here
Sequence (Q08499 whole entry): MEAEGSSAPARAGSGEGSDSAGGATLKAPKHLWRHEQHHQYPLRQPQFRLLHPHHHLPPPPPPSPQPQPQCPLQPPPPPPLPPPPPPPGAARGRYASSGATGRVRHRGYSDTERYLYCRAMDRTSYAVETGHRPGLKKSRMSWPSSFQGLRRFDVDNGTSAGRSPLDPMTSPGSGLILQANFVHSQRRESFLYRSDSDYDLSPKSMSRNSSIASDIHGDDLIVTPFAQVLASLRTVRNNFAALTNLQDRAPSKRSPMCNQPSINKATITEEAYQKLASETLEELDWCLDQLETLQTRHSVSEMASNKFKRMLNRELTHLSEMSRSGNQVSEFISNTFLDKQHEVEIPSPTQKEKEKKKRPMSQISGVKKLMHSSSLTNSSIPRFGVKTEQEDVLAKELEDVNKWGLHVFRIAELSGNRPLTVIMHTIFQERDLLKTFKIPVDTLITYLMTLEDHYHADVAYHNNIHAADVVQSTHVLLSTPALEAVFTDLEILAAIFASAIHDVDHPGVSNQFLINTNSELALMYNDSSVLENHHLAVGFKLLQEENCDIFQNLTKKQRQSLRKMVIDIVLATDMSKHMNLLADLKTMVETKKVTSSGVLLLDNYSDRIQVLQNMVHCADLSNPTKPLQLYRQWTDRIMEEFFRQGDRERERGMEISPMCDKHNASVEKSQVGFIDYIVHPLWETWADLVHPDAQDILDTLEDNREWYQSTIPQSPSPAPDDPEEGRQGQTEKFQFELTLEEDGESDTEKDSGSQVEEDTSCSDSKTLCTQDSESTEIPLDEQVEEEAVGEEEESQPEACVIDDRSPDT

molecule="CCOC(=O)[C@@H](N)Cc1ccc(-c2cc(O[C@H](c3ccc(Cl)cc3-n3ccc(C)n3)C(F)(F)F)nc(N)n2)cc1 [TELOTRISTAT ETHYL]" test_value="5 µM"
molecule="NNC(=O)c1ccncc1 [ISONIAZID]" test_value="> 30 µM"
molecule="CCC(=O)O[C@](Cc1ccccc1)(c1ccccc1)[C@H](C)CN(C)C [PROPOXYPHENE]" test_value="> 30 µM"

Tell us which AC50 value is on record for C[N+]1(C)CCC(=C(c2ccccc2)c2ccccc2)CC1
> 30 µM

Report AC50, nothing else, for this molecule: OC[C@H]1O[C@@H](Oc2cc(O)cc(/C=C/c3ccc(O)cc3)c2)[C@H](O)[C@@H](O)[C@@H]1O [PICEID]
> 30 µM

For the molecule COC(=O)[C@H]1[C@H]2C[C@@H]3c4[nH]c5cc(OC)ccc5c4CCN3C[C@H]2C[C@@H](OC(=O)c2cc(OC)c(OC)c(OC)c2)[C@@H]1OC [RESERPINE] , report AC50.
> 30 µM

Tell me measured AC50 for O=C1OC(OC(=O)c2cccnc2Nc2cccc(C(F)(F)F)c2)c2ccccc21 (configuration not stated) [TALNIFLUMATE] please.
5.2 µM

----------
AC50 tested on 5-hydroxytryptamine receptor 7 (Homo sapiens): recorded values; further: assay procedure not described here
Sequence (P34969 whole entry): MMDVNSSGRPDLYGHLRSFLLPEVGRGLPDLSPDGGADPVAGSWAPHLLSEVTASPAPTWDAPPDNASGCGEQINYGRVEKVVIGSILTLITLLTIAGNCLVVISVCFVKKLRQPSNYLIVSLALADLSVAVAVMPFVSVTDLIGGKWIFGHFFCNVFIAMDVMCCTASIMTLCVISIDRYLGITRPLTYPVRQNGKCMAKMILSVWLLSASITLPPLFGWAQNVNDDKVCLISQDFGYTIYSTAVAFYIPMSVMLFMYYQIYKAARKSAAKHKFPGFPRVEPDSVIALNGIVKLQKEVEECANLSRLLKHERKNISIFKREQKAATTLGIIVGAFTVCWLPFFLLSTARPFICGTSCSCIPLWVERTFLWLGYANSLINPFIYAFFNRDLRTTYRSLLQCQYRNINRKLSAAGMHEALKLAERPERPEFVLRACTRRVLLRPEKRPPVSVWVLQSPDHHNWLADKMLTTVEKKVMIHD

Recorded AC50, per entry:
smiles_str=NNC(=O)c1ccncc1 test_system="5-hydroxytryptamine receptor 7 (Homo sapiens)" reported_metric=AC50 test_value="> 10 µM"
smiles_str=CCCc1nc2c(C)cc(-c3nc4ccccc4n3C)cc2n1Cc1ccc(-c2ccccc2C(=O)O)cc1 test_system="5-hydroxytryptamine receptor 7 (Homo sapiens)" reported_metric=AC50 test_value="> 10 µM"

// switching to the query compound
// fetch AC50 given entry CC(C)NC[C@H](O)COc1ccc(CC(N)=O)cc1
> 10 µM

----------
target: Voltage-gated inwardly rectifying potassium channel KCNH2 (Homo sapiens); assay type: functional; further: assay procedure not described here
Sequence (Q12809 whole entry): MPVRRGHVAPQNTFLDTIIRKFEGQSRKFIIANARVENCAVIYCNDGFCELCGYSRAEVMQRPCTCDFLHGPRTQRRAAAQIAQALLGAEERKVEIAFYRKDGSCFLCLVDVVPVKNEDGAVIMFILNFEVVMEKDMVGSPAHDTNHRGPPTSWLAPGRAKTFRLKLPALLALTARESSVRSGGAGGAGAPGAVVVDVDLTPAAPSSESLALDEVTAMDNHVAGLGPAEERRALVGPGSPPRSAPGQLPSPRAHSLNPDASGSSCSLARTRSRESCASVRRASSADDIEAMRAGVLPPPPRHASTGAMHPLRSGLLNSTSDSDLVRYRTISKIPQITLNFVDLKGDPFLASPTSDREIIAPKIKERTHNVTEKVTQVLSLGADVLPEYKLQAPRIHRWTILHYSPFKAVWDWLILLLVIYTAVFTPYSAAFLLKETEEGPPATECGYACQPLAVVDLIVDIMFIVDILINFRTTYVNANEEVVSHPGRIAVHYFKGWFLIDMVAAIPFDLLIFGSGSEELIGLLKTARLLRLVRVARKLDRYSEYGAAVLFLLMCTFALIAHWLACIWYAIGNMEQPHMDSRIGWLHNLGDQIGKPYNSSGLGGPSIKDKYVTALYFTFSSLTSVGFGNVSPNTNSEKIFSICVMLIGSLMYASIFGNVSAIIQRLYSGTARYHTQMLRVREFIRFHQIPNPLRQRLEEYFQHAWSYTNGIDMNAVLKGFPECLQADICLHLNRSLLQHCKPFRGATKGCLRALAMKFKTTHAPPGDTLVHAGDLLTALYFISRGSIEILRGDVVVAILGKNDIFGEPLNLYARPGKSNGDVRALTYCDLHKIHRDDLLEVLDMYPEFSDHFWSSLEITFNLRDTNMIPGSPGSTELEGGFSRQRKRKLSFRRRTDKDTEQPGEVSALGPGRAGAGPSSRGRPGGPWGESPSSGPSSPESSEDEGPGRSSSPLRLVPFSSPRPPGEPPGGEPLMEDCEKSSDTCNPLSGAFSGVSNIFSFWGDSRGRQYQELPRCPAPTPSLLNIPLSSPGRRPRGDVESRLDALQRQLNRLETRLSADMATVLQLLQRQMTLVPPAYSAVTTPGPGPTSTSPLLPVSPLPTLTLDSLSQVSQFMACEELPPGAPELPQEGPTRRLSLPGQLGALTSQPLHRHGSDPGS
Reported Metric: AC50

Please look at this compound and report its AC50: NS(=O)(=O)c1cc2c(cc1Cl)N=C(CSCc1ccccc1)NS2(=O)=O [BENZTHIAZIDE]
> 30 µM

Consider the compound Cn1c(=O)c2c(ncn2CCOC(=O)C(C)(C)Oc2ccc(Cl)cc2)n(C)c1=O [THEOFIBRATE] and give its recorded AC50.
> 30 µM

Return AC50 (reported value) for this compound: Cc1ccc(S(=O)(=O)NC(=O)NC2CCCCC2)cc1 [GLYCYCLAMIDE]
> 30 µM

Tell me its AC50 given CN1CCCN(C(c2ccccc2)c2ccc(Cl)cc2)CC1 (stereo not given) [HOMOCHLORCYCLIZINE] as the entry.
0.81 µM

For the compound Nc1c(CC(=O)O)cccc1C(=O)c1ccc(Br)cc1 [BROMFENAC] , give its reported AC50.
> 30 µM

Read off the recorded AC50 for O=S1(=O)CCN(CN2CCS(=O)(=O)NC2)CN1 [TAUROLIDINE]
> 30 µM

Item CCc1cc2c(s1)-n1c(C)nnc1CN=C2c1ccccc1Cl [ETIZOLAM] : provide AC50
> 30 µM

Supply AC50 value. Item: CCN(CC)CCCC(C)Nc1c2ccc(Cl)cc2nc2ccc(OC)cc12 (stereo not given) [QUINACRINE]
0.7 µM

----------
Here we list compounds with their recorded AC50 when tested on Sodium-dependent noradrenaline transporter (Homo sapiens, UniProt P23975). Further: assay procedure not described here.
Sequence (P23975 whole entry): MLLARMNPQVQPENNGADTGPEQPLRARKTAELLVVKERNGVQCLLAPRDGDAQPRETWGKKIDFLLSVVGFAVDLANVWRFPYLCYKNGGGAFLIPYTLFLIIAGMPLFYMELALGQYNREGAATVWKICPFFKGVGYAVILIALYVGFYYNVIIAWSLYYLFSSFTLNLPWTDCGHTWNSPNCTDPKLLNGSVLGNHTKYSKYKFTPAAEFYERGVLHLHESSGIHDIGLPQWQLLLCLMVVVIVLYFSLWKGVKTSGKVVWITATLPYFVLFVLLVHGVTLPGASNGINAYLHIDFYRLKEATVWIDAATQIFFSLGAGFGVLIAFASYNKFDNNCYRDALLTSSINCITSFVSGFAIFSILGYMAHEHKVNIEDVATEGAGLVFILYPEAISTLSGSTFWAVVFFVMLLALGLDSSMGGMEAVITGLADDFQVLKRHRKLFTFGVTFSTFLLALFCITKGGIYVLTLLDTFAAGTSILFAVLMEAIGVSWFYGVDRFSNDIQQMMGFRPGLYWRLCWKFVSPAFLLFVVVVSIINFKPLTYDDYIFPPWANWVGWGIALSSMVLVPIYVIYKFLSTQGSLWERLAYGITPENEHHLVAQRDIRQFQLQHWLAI

Example compounds with recorded AC50:
compound=CC(C)[C@@H]1CC[C@@H](C)C[C@H]1O reported_metric=AC50 test_value="> 30 µM"
compound="CC1(CCN2CCCCC2)C(=O)CCc2ccccc21 (stereo not drawn) [NEPINALONE]" reported_metric=AC50 test_value="> 30 µM"

# context switch: different compound, same AC50
Name the recorded AC50 of Cc1cc(C2CCCCC2)n(O)c(=O)c1 , assay system Sodium-dependent noradrenaline transporter (Homo sapiens, UniProt P23975). Further: assay procedure not described here.
> 30 µM

----------
The following compounds are listed with their measured AC50 values.
molecular target: Histamine H1 receptor (Homo sapiens, UniProt P35367); further: assay procedure not described here
Sequence (P35367 whole entry): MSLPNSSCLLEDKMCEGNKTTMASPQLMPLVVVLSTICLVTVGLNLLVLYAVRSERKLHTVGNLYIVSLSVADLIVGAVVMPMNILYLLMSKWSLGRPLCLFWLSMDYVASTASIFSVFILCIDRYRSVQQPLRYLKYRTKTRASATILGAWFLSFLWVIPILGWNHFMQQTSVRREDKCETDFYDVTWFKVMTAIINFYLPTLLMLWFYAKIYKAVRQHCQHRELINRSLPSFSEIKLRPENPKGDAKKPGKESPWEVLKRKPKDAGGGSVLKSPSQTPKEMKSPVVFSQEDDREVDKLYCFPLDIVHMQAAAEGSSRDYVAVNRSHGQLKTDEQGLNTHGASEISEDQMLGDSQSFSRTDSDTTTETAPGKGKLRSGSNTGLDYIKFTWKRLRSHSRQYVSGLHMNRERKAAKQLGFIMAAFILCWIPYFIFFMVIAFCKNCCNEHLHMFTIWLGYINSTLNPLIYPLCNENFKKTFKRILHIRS

compound="CC1=C(/C=C/C(C)=C/C=C/C(C)=C/CO)C(C)(C)CCC1 [RETINOL]" test_system="Histamine H1 receptor (Homo sapiens, UniProt P35367)" test_value="> 10 µM"
compound="O=C(NCCO[N+](=O)[O-])c1cccnc1 [NICORANDIL]" test_system="Histamine H1 receptor (Homo sapiens, UniProt P35367)" test_value="> 30 µM"
compound="CC(=O)Nc1ccc(CC(=O)O)cc1 [ACTARIT]" test_system="Histamine H1 receptor (Homo sapiens, UniProt P35367)" test_value="> 30 µM"
compound="C[N+]12CCC(CC1)C(OC(=O)C(O)(c1ccccc1)c1ccccc1)C2 (centres undefined)" test_system="Histamine H1 receptor (Homo sapiens, UniProt P35367)" test_value="> 30 µM"
compound="COc1cc(C)c(/C=C/C(C)=C/C=C/C(C)=C/C(=O)O)c(C)c1C [ACITRETIN]" test_system="Histamine H1 receptor (Homo sapiens, UniProt P35367)" test_value="> 10 µM"
compound="C[C@]12C=CC(=O)C=C1CC[C@@H]1[C@@H]2CC[C@]2(C)OC(=O)CC[C@@H]12 [TESTOLACTONE]" test_system="Histamine H1 receptor (Homo sapiens, UniProt P35367)" test_value="> 10 µM"
compound="O=C(/C=C/c1cccc(S(=O)(=O)Nc2ccccc2)c1)NO [BELINOSTAT]" test_system="Histamine H1 receptor (Homo sapiens, UniProt P35367)" test_value="> 10 µM"
compound="C[C@@H]1C[C@H]2[C@@H]3C[C@H](F)C4=CC(=O)C=C[C@]4(C)[C@@]3(F)[C@@H](O)C[C@]2(C)[C@@]1(OC(=O)c1ccco1)C(=O)SCF [FLUTICASONE FUROATE]" test_system="Histamine H1 receptor (Homo sapiens, UniProt P35367)" test_value="> 10 µM"
compound="COc1cc2[nH]c(C)c(CCN3CCN(c4ccccc4)CC3)c2cc1OC [OXYPERTINE]" test_system="Histamine H1 receptor (Homo sapiens, UniProt P35367)" test_value="1.9 µM"
compound="COC(=O)C1=C(C)NC(C)=C(C(=O)OCCN2CCN(C(c3ccccc3)c3ccccc3)CC2)C1c1cccc([N+](=O)[O-])c1 (centres undefined) [MANIDIPINE 6300]" test_system="Histamine H1 receptor (Homo sapiens, UniProt P35367)" test_value="3.7 µM"

Check the records and state AC50 for CCOC(=O)[C@@H](N)Cc1ccc(-c2cc(O[C@H](c3ccc(Cl)cc3-n3ccc(C)n3)C(F)(F)F)nc(N)n2)cc1 [TELOTRISTAT ETHYL]
> 30 µM

Assign AC50 to the following record: CC(CN(C)C)C(C)(O)Cc1ccc(Cl)cc1 (centres undefined) [CLOBUTINOL]
> 10 µM

Give the reported AC50 for this compound. CCc1nc(N)nc(N)c1-c1ccc(Cl)cc1 [PYRIMETHAMINE]
> 30 µM

----------
Biological target: Alpha-2B adrenergic receptor (Homo sapiens, UniProt P18089); further: assay procedure not described here
Sequence (P18089 whole entry): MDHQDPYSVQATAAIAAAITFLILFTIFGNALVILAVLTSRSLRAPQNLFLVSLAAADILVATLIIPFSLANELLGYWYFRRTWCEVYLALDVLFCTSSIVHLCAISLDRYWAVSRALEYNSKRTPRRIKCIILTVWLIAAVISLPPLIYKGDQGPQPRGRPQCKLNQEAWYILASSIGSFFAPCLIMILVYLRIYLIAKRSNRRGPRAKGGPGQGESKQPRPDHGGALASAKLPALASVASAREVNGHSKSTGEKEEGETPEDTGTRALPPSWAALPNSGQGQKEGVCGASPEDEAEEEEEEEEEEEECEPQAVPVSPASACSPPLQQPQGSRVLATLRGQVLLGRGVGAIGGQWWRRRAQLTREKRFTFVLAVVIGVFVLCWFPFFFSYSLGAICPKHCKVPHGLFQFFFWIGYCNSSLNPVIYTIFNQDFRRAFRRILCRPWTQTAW
Reported values of AC50 for individual entries

Indicate its recorded AC50; the compound in question is O=c1[nH]c2ccccc2n1CCCN1CCN(C(c2ccccc2)c2ccccc2)CC1 [OXATOMIDE]
> 30 µM

State, in one line, measured AC50 of CCOc1cc([C@@H](CS(C)(=O)=O)N2C(=O)c3cccc(NC(C)=O)c3C2=O)ccc1OC
> 30 µM

// Input: C/C=C(/C(=C/C)c1ccc(O)cc1)c1ccc(O)cc1 . Output its AC50 only.
> 10 µM

Return reported AC50. Input compound: CCOC(=O)[C@@H](N)Cc1ccc(-c2cc(O[C@H](c3ccc(Cl)cc3-n3ccc(C)n3)C(F)(F)F)nc(N)n2)cc1
29 µM

Answer with the recorded AC50 of CC(=O)Nc1ccc(CC(=O)O)cc1 only.
> 30 µM

Return AC50 for the following compound: Cn1c(=O)c2c(ncn2CCOC(=O)C(C)(C)Oc2ccc(Cl)cc2)n(C)c1=O [THEOFIBRATE]
> 30 µM

Supply AC50 value. Item: CNCCc1ccc(OC(=O)C(C)C)c(OC(=O)C(C)C)c1
> 30 µM

Please give measured AC50 of the following entry: CC/C=C\C/C=C\C/C=C\C/C=C\C/C=C\CCCC(=O)OCC
> 30 µM

Find the measured AC50 of Oc1ccc(CCNCCCCCCNCCc2ccccc2)cc1O and report it.
19 µM

Kindly indicate its recorded AC50. Item: O=C(/C=C/c1cccc(S(=O)(=O)Nc2ccccc2)c1)NO
> 10 µM

Give reported AC50 value for OC[C@H]1O[C@@H](Oc2cc(O)cc(/C=C/c3ccc(O)cc3)c2)[C@H](O)[C@@H](O)[C@@H]1O
> 30 µM
